system under test: human HER3 endogenously expressed on human cancer cells (SK-Br-3, BT-474, MCF7) (human, UniProt P21860 20-1342)
assay details: cell-based or functional assay
The entries below are paired with their reported MCF7 pAkt % inhibition.
Provide the measurement as a number trailed by its unit.

Previously resolved entries follow.
binder	MCF7 pAkt % inhibition
MOR13657 (antibody, human IgG1, lambda, V domains shown, Tested as IgG) VH: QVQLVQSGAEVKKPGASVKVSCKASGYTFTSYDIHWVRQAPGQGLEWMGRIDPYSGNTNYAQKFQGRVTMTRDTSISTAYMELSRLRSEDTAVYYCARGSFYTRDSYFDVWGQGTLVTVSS VL: DIALTQPASVSGSPGQSITISCTGTSSDVGTYNQVSWYQQHPGKAPKLMIYGVSKRPSGVSNRFSGSKSGNTASLTISGLQAEDEADYYCSARDGWSEYVFGGGTKLTVLG	75%
MOR13654 (antibody, human IgG1, lambda, V domains shown, Tested as IgG) VH: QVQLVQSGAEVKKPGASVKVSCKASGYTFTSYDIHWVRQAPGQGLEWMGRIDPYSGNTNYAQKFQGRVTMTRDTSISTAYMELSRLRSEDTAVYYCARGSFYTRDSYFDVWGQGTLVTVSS VL: DIALTQPASVSGSPGQSITISCTGTSSDVGTYNQVSWYQQHPGKAPKLMIYGVSKRPSGVSNRFSGSKSGNTASLTISGLQAEDEADYYCQSRGEYRPGWVFGGGTKLTVLG	72%
MOR13655 (antibody, human IgG1, lambda, V domains shown, Tested as IgG) VH: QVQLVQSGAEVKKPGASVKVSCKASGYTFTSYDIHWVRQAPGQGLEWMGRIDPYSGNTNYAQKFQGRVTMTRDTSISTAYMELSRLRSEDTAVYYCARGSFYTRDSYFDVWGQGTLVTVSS VL: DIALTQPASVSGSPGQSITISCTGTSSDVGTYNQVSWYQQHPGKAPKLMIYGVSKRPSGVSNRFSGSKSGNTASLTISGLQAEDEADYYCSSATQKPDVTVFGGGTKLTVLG	79%
MOR13658 (antibody, human IgG1, lambda, V domains shown, Tested as IgG) VH: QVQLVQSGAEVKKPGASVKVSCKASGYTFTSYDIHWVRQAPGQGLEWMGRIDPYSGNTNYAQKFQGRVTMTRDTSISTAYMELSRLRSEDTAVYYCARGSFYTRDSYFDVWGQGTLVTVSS VL: DIALTQPASVSGSPGQSITISCTGTSSDVGTYNQVSWYQQHPGKAPKLMIYGVSKRPSGVSNRFSGSKSGNTASLTISGLQAEDEADYYCASADHSYHTVFGGGTKLTVLG	81%

Then this binder:
Please report the recorded MCF7 pAkt % inhibition for MOR12615 (antibody, human IgG1, lambda, V domains shown, Tested as IgG) VH: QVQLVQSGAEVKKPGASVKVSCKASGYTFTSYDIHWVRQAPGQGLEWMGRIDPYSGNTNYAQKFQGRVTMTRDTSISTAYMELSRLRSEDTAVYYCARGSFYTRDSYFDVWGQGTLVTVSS VL: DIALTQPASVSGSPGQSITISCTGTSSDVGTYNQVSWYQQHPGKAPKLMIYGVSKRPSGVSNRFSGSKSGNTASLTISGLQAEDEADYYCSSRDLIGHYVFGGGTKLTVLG .
78%
